Test system: OVCAR-4 ovarian
Assay: NCI tumour cell line growth inhibition, 48 h
quantity: TGI

// below: answered molecules
1. COc1ccc(CCc2nc3cc(-c4c(C)noc4C)ccc3n2CCN2CCOCC2)cc1 > 100 µM
2. CC(C)(C)OC(=O)N(CCCN)CCCCN > 100 µM
3. NS(=O)(=O)c1ccc(N=Nc2c(O)[nH]c3ccc(Cl)cc23)cc1 > 25 µM

Find the recorded TGI belonging to CN1CCN(Cc2nc3cccc4c3c([n+]2[O-])-c2ccccc2-4)CC1 and report it. > 84.4 µM

====

# TGI annotations
System: SF-539 CNS
Experiment: NCI tumour cell line growth inhibition, 48 h
Write the answer as a number in µM, unit excluded.

Illustrative cases are given below, each with its answer.
compound	assayed.target	TGI, µM
COc1ccc(NC(=S)N/N=C(\c2ccccc2)c2ccccn2)cc1	SF-539 CNS	3.03
O=C1C(c2ccccc2)=[N+]([O-])c2ccc(Cl)cc21	SF-539 CNS	38.5
O=C1C=CC2(NN=C(c3ccccc3)N2c2ccccc2)c2cccc(O)c21 (configuration not stated)	SF-539 CNS	2.79

Would you kindly look at the next entry?
Fill in the blank: the reported TGI of O=S(=O)(Nc1ccc2ccccc2c1)N1CCCCC1 is ____. 24.9

====

Tested on: HCT-116 colon
Experiment: NCI tumour cell line growth inhibition, 48 h; in the data active = GI50 below about 0.43 µM; inactive = the rest
Bench note: report the call from active, inactive

1) CCOC(=O)c1cc(C(=O)c2cc(OC)c(OC)c(OC)c2)n2nc(C)ccc12 active
2) O=C(NNC(=O)c1ccccc1S)c1ccccc1S inactive

How did this test come out for COc1ccc(/C=C/C(=O)Nc2cc(/C=C\c3cc(OC)c(OC)c(OC)c3)cc(OC)c2OC)cc1OC ? inactive

====

Test system: DMS 114 small cell lung
Test: NCI tumour cell line growth inhibition, 48 h
Below, each entry is listed with its recorded TGI.

Returns the measured TGI for the input compound. Input: CCOC(=O)C(/C(=N/NC(=O)OC)C(=O)Nc1ccc(C(C)=O)cc1)c1cnc2ccccc2n1 (stereo not drawn) > 100 µM

Bench note: what TGI did CC(=O)/C(=C\c1ccccc1)C(=O)Nc1ccccc1 show? > 100 µM

Give the measured TGI of CN(C)CCNc1ccc2nnn3c4ccc(O)cc4c(=O)c1c23 . 20.9 µM

Item under review: O=C1c2ccccc2C(=O)c2nc3c(O)cccc3cc21 . Reported TGI? 20.7 µM

Query (compound): CCCC(=O)Nc1ccc(O)c2c1C1CCCCCC21 (stereo not drawn) ; field requested: TGI > 100 µM

====

Tested on: NCI-H226 lung
Assay: NCI tumour cell line growth inhibition, 48 h
Catalogue of molecules with associated TGI

molecule	assayed.target	result
O=C(O)C(CO)N=Cc1nc(-c2ccccc2)oc1O (stereo unspecified)	NCI-H226 lung	> 100 µM
CC1(C)OCC(C2OC(OC(=O)c3ccc(C(F)(F)F)cc3)C3OC(C)(C)OC23)O1 (stereo unspecified)	NCI-H226 lung	> 77.5 µM
CC(=O)/C(=C\c1ccccc1)C(=O)Nc1ccccc1	NCI-H226 lung	> 100 µM
CC(C)(C)OC(=O)N(CCCN)CCCCN	NCI-H226 lung	> 100 µM
Cc1ccccc1Cn1nc2ccccc2cc1=O	NCI-H226 lung	> 100 µM

Turning now to a further record.
Give the measured TGI of COc1cc2nccc(Oc3ccc(NC(=O)C4(C(=O)Nc5ccc(F)cc5)CC4)cc3)c2cc1OC(=O)c1ccc(N)cc1 . > 100 µM

These measurements were taken from PubChem BioAssay (NCI).
